Where these numbers come from: ChEMBL document CHEMBL3399947

IC50 overview
Target: GABA transporter 2 (Mus musculus)
Sequence (P31651 whole entry): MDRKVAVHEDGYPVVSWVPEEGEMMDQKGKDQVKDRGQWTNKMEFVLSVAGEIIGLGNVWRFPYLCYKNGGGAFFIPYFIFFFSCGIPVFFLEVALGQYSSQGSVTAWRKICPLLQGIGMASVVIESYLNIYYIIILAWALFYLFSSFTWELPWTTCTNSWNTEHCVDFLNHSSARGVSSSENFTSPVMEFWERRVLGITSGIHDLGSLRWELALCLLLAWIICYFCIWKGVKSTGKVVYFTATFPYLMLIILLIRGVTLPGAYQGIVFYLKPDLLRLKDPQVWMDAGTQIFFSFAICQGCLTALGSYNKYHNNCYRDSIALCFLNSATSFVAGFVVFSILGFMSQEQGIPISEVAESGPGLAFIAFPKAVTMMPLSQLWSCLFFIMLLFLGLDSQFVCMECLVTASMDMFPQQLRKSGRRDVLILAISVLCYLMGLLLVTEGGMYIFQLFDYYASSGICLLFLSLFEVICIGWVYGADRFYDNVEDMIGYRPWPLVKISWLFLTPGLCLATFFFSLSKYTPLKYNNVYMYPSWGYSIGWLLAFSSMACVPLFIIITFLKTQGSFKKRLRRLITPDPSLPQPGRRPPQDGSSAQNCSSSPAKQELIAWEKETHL
Test: Inhibition of mouse mGAT2 expressed in HEK293 cells assessed as inhibition of [3H]GABA uptake after 3 mins incubation by TopCount microplate scintillation counting analysis
Assay type: cell-based
Conditions: read-out: IC50
Use µM as the unit, but write only the number.

The compound CN(CCOC(c1ccc(C(F)(F)F)cc1)c1ccc(C(F)(F)F)cc1)[C@@H]1CCCC[C@@H]1CO showed IC50 equal to 63.3

The compound CCC(C)N1CCN(CCC=C(c2sccc2C)c2sccc2C)CC(C(=O)O)C1 (stereo not given) showed IC50 equal to 160

The compound C=CCN1CCN(CCC=C(c2sccc2C)c2sccc2C)CC(C(=O)O)C1 (stereo not given) showed IC50 equal to 160

More entries:
The compound CCOC(=O)[C@@H]1CCCC[C@@H]1N(C)CCOC(c1ccc(C(F)(F)F)cc1)c1ccc(C(F)(F)F)cc1 showed IC50 equal to 417
